Recorded values, source PubChem BioAssay AID1159580.

The compounds listed here are annotated with their normalized growth.
# method_notes: chemical genetic growth profiling, strain panel (AID 1159580);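 note: tested at 20 µM; growth read once vehicle control cultures reached saturation at 30 °C; 1 = growth at the plate median or of vehicle wells; lower values mean less growth of the strain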
# condition_details: S. cerevisiae deletion strains, growth OD, locus YLR262C, strain YPT6, hits give low values
Among all 5,500 compounds or so, about 2,000 (36%) were called active. Not shown: some 18% with an inconclusive outcome. The list shows a part of the results.
Returns: the value as a bare number; no unit string appended.

>>> df
                    structure_smiles_string  numeric_value
0  CC(C)[N+](C)(CCOC(=O)C1c2ccccc2Oc2ccccc21)C(C)C           1.07
1             N#Cc1cnn(-c2ccccc2)c1-n1cccc1          0.883
2          OC(CCN1CCCCC1)(c1ccccc1)c1ccccc1            1.1

Name the recorded normalized growth of the item `CC1(C)/C(=N/OC(=O)c2cccc(C(F)(F)F)c2)[C@]2(C)CCC1C2` in your answer. 0.964

Name the recorded normalized growth of the item `c1ccc(CC2=NCCN2)cc1` in your answer. 0.927

Name the recorded normalized growth of the item `CCCCOc1ccc(CC(=O)NO)cc1` in your answer. 0.738
